target: UniProt:P00338; experiment: Competitive inhibition of human LDH5 incubated for 15 mins in presence of NADH by fluorescence analysis
metric_name: Ki (µM)
Form entry: value (µM) — number only.

GET /values?readout=Ki&item= O=C(O)c1cc2c(C(F)(F)F)cc(-c3ccccc3)cc2n1O[C@@H]1O[C@H](CO)[C@@H](O)[C@H](O)[C@H]1O
19.5

###

Assay read-out pKi; system under study: UniProt:P00338.
Expect pKi as a plain number equal to -log10 of the molar concentration.

Guide cases for pKi, answers given:
>>> df
                                  structure  data_value
0        CCCc1c(O)c(O)c(C(=O)O)c2ccc(C)cc12        6.00
1  Cc1cc2c(C(C)C)c(O)c(O)c(C(=O)O)c2cc1Cc1ccccc1        6.70
2  Cc1cc2c(C(C)C)c(O)c(O)c(C(=O)O)c2cc1-c1ccc2c(C(C)C)c(O)c(O)c(C(=O)O)c2c1        5.89

Next, consider the following compound.
GET /values?readout=pKi&item= CCCCC(=O)Oc1c(-c2c(C)cc3c(C(C)C)c(O)c(O)c(C#N)c3c2OC(=O)CCCC)c(C)cc2c(C(C)C)c(O)c(O)c(C#N)c12
5.04
